Every entry's value here was drawn from ChEMBL document CHEMBL1201861.

- System: G-402
- ASSAY: cells
- Type: functional, cell-based, Homo sapiens
- CONDITION_DETAILS: Homo sapiens, G-402
- Description: SANGER: Inhibition of human G-402 cell growth in a cell viability assay.
pIC50: −log10 of the molar value.
EXPERIMENTAL_READOUT: pIC50

Query :: Notebook: pull reported pIC50 for G-402, entry COc1cc([C@@H]2c3cc4c(cc3[C@@H](O[C@@H]3O[C@@H]5CO[C@@H](C)O[C@H]5[C@H](O)[C@H]3O)[C@H]3COC(=O)[C@H]23)OCO4)cc(OC)c1O [ETOPOSIDE]
Result :: 6.05

Query :: Notebook: pull reported pIC50 for G-402, entry COc1cc(F)c(F)c(Nc2ccc(I)cc2F)c1NS(=O)(=O)C1(CC(O)CO)CC1 (stereo not drawn)
Result :: < 5.30

Query :: Notebook: pull reported pIC50 for G-402, entry "Cc1cnc(-c2cnc(NCCNc3ccc(C#N)cn3)nc2-c2ccc(Cl)cc2Cl)[nH]1"
Result :: < 5.59
